Target of assay: MERTK (UniProt Q12866)
Sequence (Q12866 whole entry, looked up): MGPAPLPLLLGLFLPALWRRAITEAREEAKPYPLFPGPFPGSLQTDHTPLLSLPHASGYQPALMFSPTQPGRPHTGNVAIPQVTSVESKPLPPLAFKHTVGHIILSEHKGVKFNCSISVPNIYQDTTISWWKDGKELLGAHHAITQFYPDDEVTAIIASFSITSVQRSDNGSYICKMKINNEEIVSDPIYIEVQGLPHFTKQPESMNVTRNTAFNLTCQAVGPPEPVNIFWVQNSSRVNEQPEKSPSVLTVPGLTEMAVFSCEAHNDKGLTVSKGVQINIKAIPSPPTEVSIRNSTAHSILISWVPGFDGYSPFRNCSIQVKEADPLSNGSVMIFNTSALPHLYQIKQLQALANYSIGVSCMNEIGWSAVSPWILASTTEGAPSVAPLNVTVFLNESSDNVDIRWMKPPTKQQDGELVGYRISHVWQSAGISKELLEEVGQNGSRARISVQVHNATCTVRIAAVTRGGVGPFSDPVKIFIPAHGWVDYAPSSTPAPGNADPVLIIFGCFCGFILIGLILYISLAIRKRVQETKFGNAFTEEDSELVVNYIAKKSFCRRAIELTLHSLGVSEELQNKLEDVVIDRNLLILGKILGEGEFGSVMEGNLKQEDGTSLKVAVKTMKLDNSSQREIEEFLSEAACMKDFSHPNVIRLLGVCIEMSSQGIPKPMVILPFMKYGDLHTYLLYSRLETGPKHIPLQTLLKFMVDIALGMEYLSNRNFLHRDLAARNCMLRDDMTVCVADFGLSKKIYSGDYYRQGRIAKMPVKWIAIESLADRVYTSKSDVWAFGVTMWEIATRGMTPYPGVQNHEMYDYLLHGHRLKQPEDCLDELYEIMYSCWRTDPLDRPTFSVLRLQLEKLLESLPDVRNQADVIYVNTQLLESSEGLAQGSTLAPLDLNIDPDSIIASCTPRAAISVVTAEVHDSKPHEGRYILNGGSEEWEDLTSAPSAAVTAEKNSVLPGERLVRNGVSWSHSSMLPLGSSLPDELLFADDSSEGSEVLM
Procedure summary: phosphorylation enrichment, bacterial display (enrichment ratio); higher = better substrate or ligand; peptides without Tyr show the background;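 note: 11-residue human phosphosite peptides and single-mutation variants displayed on the E. coli surface, counted by deep sequencing, each peptide's frequency after selection divided by its frequency in the unselected input library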;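 note: frequency after pTyr selection over input frequency; kinase dosed for 20-30% of maximal phosphorylation in three min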
Short version: phosphorylation enrichment at least 0.5 is Satisfied, less is Not satisfied.

> print(dat)
                     chain.sequence  classification
1  VECQVYAEDPF [PCCA_Y401_R399Q_YF]   Not satisfied

// query Does LLREWYLQDPY [SIX3_Y225] have a reported phosphorylation enrichment of at least 0.5?
// result Satisfied

// query Check this sequence for phosphorylation enrichment at or above 0.5: EVTLTYATGIK [NFKB1_Y485_T489I]
// result Not satisfied

// query Is it the case that GSIQQYIYKQE [PRG4_Y1271] has phosphorylation enrichment reaching or exceeding 0.5?
// result Not satisfied

// query Would you say KYVVVYFREID [IL17RB_Y447] shows phosphorylation enrichment at minimum 0.5?
// result Not satisfied

// query Could you verify whether the entry CTTVHYNYMCN [TP53_Y234_I232V] shows phosphorylation enrichment of no less than 0.5?
// result Not satisfied

// query Is it the case that KGPGEYVNIEF [IRS1_Y896_S892G] has phosphorylation enrichment reaching or exceeding 0.5?
// result Not satisfied

// query hey, is phosphorylation enrichment for this one >= 0.5? ISKTWYSAEQF [CD207_Y217_P213S]
// result Satisfied

// query Is reported phosphorylation enrichment greater than or equal to 0.5 here: VIKDKYPQARY [APTX_Y209_K211Q]
// result Not satisfied

// query State whether the measured phosphorylation enrichment reaches 0.5, counting equality as reaching it, for HYVYYYSYLLK [PTEN_Y178_R173H]
// result Satisfied

// query phosphorylation enrichment >= 0.5 for SQQTFCRVSNM [ABCD1_Y181_Y181C_YF] ?
// result Not satisfied

// query State whether the measured phosphorylation enrichment reaches 0.5, counting equality as reaching it, for SDGHEYIFVDP [PDGFRB_Y579_YF]
// result Not satisfied

// query Does phosphorylation enrichment meet or surpass 0.5 for QDEHGYISRCF [HSPB1_Y133] ?
// result Not satisfied

// query Kindly determine if phosphorylation enrichment recorded for EADRKYEEVAH [TPM3_Y163_R168H] is above or exactly 0.5.
// result Not satisfied

// query Given the entry IPGRFYETGSI [PAX2_Y73_L69P_YF] , answer whether its phosphorylation enrichment meets or surpasses 0.5.
// result Not satisfied

// query Would you say PEIIAYQPYGK [PRKCG_Y529] shows phosphorylation enrichment at minimum 0.5?
// result Satisfied

// query Entry FADTAYNFRHG [PAH_Y166_I164T_YF] : is its phosphorylation enrichment no less than 0.5?
// result Not satisfied

// query State whether the measured phosphorylation enrichment reaches 0.5, counting equality as reaching it, for ATHRSYDSDNP [MMUT_Y146_G145S]
// result Satisfied

// query Textbook exercise: given the entry IDAICYYRMEN [NPHS2_Y194] , state whether its phosphorylation enrichment is greater than or equal to 0.5.
// result Satisfied

// query Is the recorded value of phosphorylation enrichment equal to or greater than 0.5 for this sequence? ISHVAYLVLGK [TRRAP_Y892_R893L]
// result Satisfied

// query # check: phosphorylation enrichment of EWLRGYLENGK [HLA-C_Y195_R194G] is greater than or equal to 0.5
// result Not satisfied

// query Hi, just wondering whether KRISCYEARFQ [PFKFB3_Y194_S197R_YF] shows phosphorylation enrichment of 0.5 or higher.
// result Not satisfied

// query Entry LTEEKYELKEG [TREM1_Y29] : is its phosphorylation enrichment no less than 0.5?
// result Satisfied

// query Does the reported phosphorylation enrichment for SVVVPYQPPEV [TP53_Y220_E221Q] fall at or above the 0.5 mark?
// result Not satisfied

// query Kindly determine if phosphorylation enrichment recorded for MAPQMYESHLP [NCAPD2_Y6_F8S] is above or exactly 0.5.
// result Not satisfied

----------
Tested on: c-Src
Procedure summary: phosphorylation enrichment, bacterial display (enrichment ratio); higher = better substrate or ligand; peptides without Tyr show the background
Measured quantity: phosphorylation enrichment
Answer as a number with no unit attached.

Examples with their reported phosphorylation enrichment follow.
> print(dat)
                   chain.sequence           measured.quantity  reported.value
1          ARRHPYFYAPE [ALB_Y172]  phosphorylation enrichment           0.972
2        VGTTAYMAPEA [IRAK4_Y354]  phosphorylation enrichment           0.414
3  MSLDQYSPSFP [FGFR1_Y776_P772S]  phosphorylation enrichment           0.454

// query Which measured phosphorylation enrichment value corresponds to SSEYHCVGGFY [CTSC_Y347_Y347C] ?
// result 1.82

// query Reported phosphorylation enrichment, sequence GTATAYLCGVK [ALPL_Y117] : ____
// result 0.427

----------
Catalogue of phosphorylation enrichment readings, one per entry.
Test system: c-Src
Procedure summary: phosphorylation enrichment, bacterial display (enrichment ratio); higher = better substrate or ligand; peptides without Tyr show the background
API doc: respond with a numeric literal and nothing else, no unit.

Recorded results for 3 sequences are shown here.
> print(dat)
                  chain.sequence           measured.quantity  reported.value
1       RMLREYQELMS [KRT74_Y425]  phosphorylation enrichment            0.57
2        RAADYYSQQMA [GBP6_Y334]  phosphorylation enrichment           0.435
3  HPFHVYSQPGM [BAG3_Y114_P115S]  phosphorylation enrichment           0.937

As a next step, examine the sequence that follows.
// query Any idea what phosphorylation enrichment was measured for AVLALYNSTRD [TGFB1_Y81] ?
// result 0.489

----------
Here the recorded phosphorylation enrichment is given for each entry.
Target of assay: Fyn (UniProt P06241)
Sequence (P06241 whole entry, looked up): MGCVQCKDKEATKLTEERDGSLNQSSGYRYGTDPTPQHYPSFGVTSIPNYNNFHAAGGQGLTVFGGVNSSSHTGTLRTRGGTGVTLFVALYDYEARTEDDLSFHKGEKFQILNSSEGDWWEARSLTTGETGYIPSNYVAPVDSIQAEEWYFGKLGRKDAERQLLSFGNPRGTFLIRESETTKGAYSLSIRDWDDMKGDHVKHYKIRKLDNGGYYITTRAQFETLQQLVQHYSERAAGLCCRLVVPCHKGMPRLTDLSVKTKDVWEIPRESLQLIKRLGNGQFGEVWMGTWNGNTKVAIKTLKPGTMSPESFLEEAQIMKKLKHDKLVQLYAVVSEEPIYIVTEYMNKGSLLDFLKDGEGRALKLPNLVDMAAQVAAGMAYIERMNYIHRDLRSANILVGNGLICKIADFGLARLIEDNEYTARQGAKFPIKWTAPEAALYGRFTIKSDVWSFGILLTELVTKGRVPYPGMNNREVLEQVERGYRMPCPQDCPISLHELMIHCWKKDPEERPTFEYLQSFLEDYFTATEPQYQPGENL
Procedure summary: phosphorylation enrichment, bacterial display (enrichment ratio); higher = better substrate or ligand; peptides without Tyr show the background
Please reply with the number alone, leaving off any unit.

// query Request the reported phosphorylation enrichment associated with NTDETYCIDNK [TUBB3_Y200_E205K]
// result 0.781

----------
Test system: c-Src
Procedure summary: phosphorylation enrichment, bacterial display (enrichment ratio); higher = better substrate or ligand; peptides without Tyr show the background
Criterion: phosphorylation enrichment meeting or surpassing 0.5. Met: t. Not met: f.

> print(dat)
                 chain.sequence  classification
1  IVRSLYEDQED [VHL_Y185_L188Q]               t

// query Is phosphorylation enrichment for FVHDNYVIQRT [CPS1_Y1450_R1453Q] at or above 0.5?
// result f

// query Hi, just wondering whether LLASRYDSPIN [ABLIM1_Y638] shows phosphorylation enrichment of 0.5 or higher.
// result t

// query # check: phosphorylation enrichment of EAVLHYKHQNQ [MTOR_Y1804] is greater than or equal to 0.5
// result f

----------
Target of assay: MERTK (UniProt Q12866)
Procedure summary: phosphorylation enrichment, bacterial display (enrichment ratio); higher = better substrate or ligand; peptides without Tyr show the background
Quick reference: phosphorylation enrichment of the listed items.
Reply with the value as a number alone.

Sample answers from the record:
> print(dat)
                   chain.sequence         target.of.assay  reported.value
1  EKAEVYRSENE [RIOK2_Y348_G349R]  MERTK (UniProt Q12866)            0.44
2  SHGQDYLAGNK [GSTA2_Y147_V149A]  MERTK (UniProt Q12866)           0.471

Attention now shifts to the item below.
// query Query the reported phosphorylation enrichment for MERTK (UniProt Q12866); item: CDTKLYTSAPN [DNTTIP2_Y427]
// result 0.679

----------
Test system: c-Src
Procedure summary: phosphorylation enrichment, bacterial display (enrichment ratio); higher = better substrate or ligand; peptides without Tyr show the background
Below, each entry is listed with its recorded phosphorylation enrichment.
Answer using only a numeral; do not append any unit.

> print(dat)
                chain.sequence  target.of.assay  reported.value
1  KANEYYPVVLI [ADAMTS18_Y765]            c-Src           0.655

// query Which phosphorylation enrichment is reported for this sequence? NVPILYTASQA [CTNNA1_Y222]
// result 0.418

// query Give its phosphorylation enrichment value. Item: IVEELYAIPPD [PEAK1_Y797_S792I]
// result 3.23

// query I have this sequence here, LTEHGYSFTTT [ACTB_Y198_R196H] , and I need its recorded phosphorylation enrichment.
// result 1.09

// query Requested read-out: phosphorylation enrichment. Entry: NVDGKYSFLKV [GRM3_Y478_G475D_YF]
// result 0.439

// query // returns reported phosphorylation enrichment for input EYLHKYKGFKI [SYNE1_Y6953_Q6951H]
// result 0.501
